Reference source for all entries: patent EP3057951B1

Reported pIC50 values follow for various compounds
experimental_system: wild type human RORγt LBD (Homo sapiens, UniProt P51449)
Construct: expressed in transfected cells; host or cells: HEK293T
Sequence (P51449 258-518): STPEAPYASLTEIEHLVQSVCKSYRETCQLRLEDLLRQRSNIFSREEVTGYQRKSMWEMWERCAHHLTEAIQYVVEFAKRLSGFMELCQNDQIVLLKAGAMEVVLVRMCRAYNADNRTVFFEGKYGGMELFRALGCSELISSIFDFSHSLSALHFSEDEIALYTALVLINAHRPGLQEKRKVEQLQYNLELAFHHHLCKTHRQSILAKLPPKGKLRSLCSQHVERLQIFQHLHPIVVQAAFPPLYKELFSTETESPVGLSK
test_summary: RORγt (LBD) Reporter Assay (GAL4-luciferase, HEK293T cells)
Format: cell-based
condition_set: HEK293T cells; value after the comma with ∼, > or < could not be included in the average
Lab note: report pIC50 as minus log10 of the concentration in molar units, number only.

INSERT INTO measurements (compound, result_type, measured) VALUES
  ('COc1nc2ccc(C(O)(c3cccnc3)c3cccc(F)c3)cc2c(Cl)c1Cc1ccc(-n2cccn2)cc1 (stereo not drawn)', 'pIC50', 7.08),
  ('COc1nc2ccc(C(O)(c3sc(C)nc3C)c3cnnn3C)cc2cc1Cc1ccc(C(F)(F)F)cc1 (racemic) [Example 92a]', 'pIC50', 7.10),
  ('COc1nc2ccc(C(O)(c3cnnn3C)c3cnc(C)n3C)cc2c(C#N)c1Cc1ccc(F)cc1 (single isomer, unassigned) [Example 66c]', 'pIC50', 8.59);

Give me measured pIC50, please, for this compound: Cn1cc(-c2nc3ccc(C(O)(c4ccc(C(F)(F)F)nc4)c4cncn4C)cc3c(C#N)c2Cc2ccccc2)cn1 (stereo not drawn) [Example 112a] 6.00

Give me measured pIC50, please, for this compound: CC(=O)N1CCC(C(O)(c2ccccc2)c2ccc3nc(Cl)c(Cc4cncnc4)c(OC(F)F)c3c2)CC1 (single isomer, unassigned) [Example 73b] 6.15

Give me measured pIC50, please, for this compound: COc1nc2ccc(C(O)(c3ccc(C)nc3C)C3CN(C(C)=O)C3)cc2c(Cl)c1Cc1ccc(C(F)(F)F)cc1 (single isomer, unassigned) [Example 87b] 7.89

Give me measured pIC50, please, for this compound: COc1nc2ccc(C(O)(c3cnnn3C)c3cnc(C)n3C)cc2c(C#N)c1Cc1ccc(C(F)(F)F)nc1 (single isomer, unassigned) [Example 44b] 7.62

Give me measured pIC50, please, for this compound: COc1nc2ccc(C(O)(c3cnnn3C)c3cnc(C)n3C)cc2c(C#N)c1Cc1ccc(C(F)(F)F)nc1 (single isomer, unassigned) [Example 44c] 7.72

----------
Reported log10 of IC50 values follow for various compounds
experimental_system: wild type human RORγt LBD (Homo sapiens, UniProt P51449)
Construct: expressed in transfected cells; host or cells: HEK293T
Sequence (P51449 258-518): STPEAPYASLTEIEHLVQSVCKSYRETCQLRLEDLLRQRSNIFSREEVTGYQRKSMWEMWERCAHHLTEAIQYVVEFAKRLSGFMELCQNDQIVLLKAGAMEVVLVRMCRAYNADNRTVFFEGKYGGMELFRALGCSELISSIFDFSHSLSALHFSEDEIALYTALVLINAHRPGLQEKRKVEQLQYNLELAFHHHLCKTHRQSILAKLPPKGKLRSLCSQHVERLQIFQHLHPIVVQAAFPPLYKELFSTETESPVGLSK
test_summary: RORγt (LBD) Reporter Assay (GAL4-luciferase, HEK293T cells)
Format: cell-based
condition_set: HEK293T cells; value after the comma with ∼, > or < could not be included in the average
Quick note: numbers are log10 of IC50, with µM as the unit.

Give me measured log10 of IC50, please, for this compound: CCc1nc2ccc(C(O)(c3ccc(C)nc3C)c3cnnn3C)cc2c(Cl)c1Cc1ccc(C(F)(F)F)cc1 (centres unmarked) [Example 23a] -1.74

Give me measured log10 of IC50, please, for this compound: COc1nc2ccc(C(O)(c3ccc(C)nc3C)C3CN(C(C)=O)C3)cc2c(Cl)c1Cc1ccc(C(F)(F)F)cc1 (racemic) [Example 87a] -2.17

Give me measured log10 of IC50, please, for this compound: COc1nc2ccc(C(O)(c3ccc(C)nc3C)c3cnnn3C)cc2c(Cl)c1Cc1ccc(-n2cccn2)cc1 (single isomer, unassigned) [Example 17c] -2.05

Give me measured log10 of IC50, please, for this compound: COc1nc2ccc(C(O)(c3ccc(C)nc3C)C3CN(C(C)=O)C3)cc2c(Cl)c1Cc1ccc(C(F)(F)F)cc1 (single isomer, unassigned) [Example 87c] -1.82

Give me measured log10 of IC50, please, for this compound: COc1nc2ccc(C(O)(c3ccc(C)nc3C)c3cnnn3C)cc2c(Cl)c1Cc1ccc(C)cc1 (single isomer, unassigned) [Example 20b] 0.15

Give me measured log10 of IC50, please, for this compound: COc1nc2ccc(C(O)(c3ccc(Cl)cc3)c3cccnc3)cc2c(Cl)c1Cc1ccc(-n2cccn2)cc1 (centres unmarked) [Example 62] -0.92

Give me measured log10 of IC50, please, for this compound: CC(=O)N1CCC(C(O)(c2ccc(C(F)(F)F)nc2)c2cc(C)c3nc(C#N)c(Cc4ccc(-n5cccn5)cc4)c(C#N)c3c2)CC1 (single isomer, unassigned) [Example 79b] -0.12

Give me measured log10 of IC50, please, for this compound: COc1nc2ccc(C(O)(c3sc(C)nc3C)c3cnnn3C)cc2cc1Cc1ccc(C(F)(F)F)cc1 (single isomer, unassigned) [Example 92c] -1.52

Give me measured log10 of IC50, please, for this compound: COc1nc2ccc(C(O)(c3ccccc3)C3CCN(C(C)=O)CC3)cc2c(Cl)c1Cc1ccc(C(F)(F)F)cc1 (single isomer, unassigned) [Example 69c] -1.16

Give me measured log10 of IC50, please, for this compound: COc1nc2ccc(C(N)(c3ccc(C(F)(F)F)nc3)c3cncn3C)cc2c(Cl)c1Cc1cc2ccccc2s1 (single isomer, unassigned) [Example 71c] -0.08

Give me measured log10 of IC50, please, for this compound: Cc1cc(C(O)(c2ccnc(C(F)(F)F)c2)c2cncn2C)cc2c(C#N)c(Cc3ccc(-n4cccn4)cc3)c(C#N)nc12 (single isomer, unassigned) [Example 83c] 0.18

Give me measured log10 of IC50, please, for this compound: COc1nc2ccc(C(O)(c3cnnn3C)c3cnc(C)n3C)cc2c(C#N)c1Cc1ccc(C(F)(F)F)nc1 (centres unmarked) [Example 44a] -2.12

Give me measured log10 of IC50, please, for this compound: COc1nc2ccc(C(O)(c3cnnn3C)c3cnc(C)n3C)cc2c(C#N)c1Cc1ccc(F)cc1 (racemic) [Example 66a] -2.09

Give me measured log10 of IC50, please, for this compound: COc1nc2ccc(C(O)(c3sc(C)nc3C)c3cnnn3C)cc2cc1Cc1ccc(C(F)(F)F)cc1 (single isomer, unassigned) [Example 92b] 0.45

Give me measured log10 of IC50, please, for this compound: COc1nc2ccc(C(O)(c3cc(C)nc(C)c3)c3cnnn3C)cc2c(Cl)c1Cc1ccc(C(F)(F)F)cc1 (single isomer, unassigned) [Example 84c] -2.22

Give me measured log10 of IC50, please, for this compound: CCc1nc2ccc(C(O)(c3ccc(C)nc3C)c3cnnn3C)cc2c(Cl)c1Cc1ccc(C(F)(F)F)cc1 (single isomer, unassigned) [Example 23c] -1.34
